# Subject of test: Neuropeptide Y receptor type 5 (Homo sapiens)
# Sequence (Q15761 whole entry): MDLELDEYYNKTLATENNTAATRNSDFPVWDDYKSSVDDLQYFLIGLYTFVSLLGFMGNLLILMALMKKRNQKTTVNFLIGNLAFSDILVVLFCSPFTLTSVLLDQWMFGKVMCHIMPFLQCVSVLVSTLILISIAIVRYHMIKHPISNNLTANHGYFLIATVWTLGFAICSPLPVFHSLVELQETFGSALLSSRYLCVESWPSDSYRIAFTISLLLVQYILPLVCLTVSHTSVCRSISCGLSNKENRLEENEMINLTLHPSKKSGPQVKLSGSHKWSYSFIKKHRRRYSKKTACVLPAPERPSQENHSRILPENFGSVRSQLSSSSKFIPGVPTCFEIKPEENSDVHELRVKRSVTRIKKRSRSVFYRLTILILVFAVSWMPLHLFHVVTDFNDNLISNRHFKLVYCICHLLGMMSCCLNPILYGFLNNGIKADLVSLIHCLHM
# Protocol: Displacement of [125I]PYY from human recombinant NPYY5 receptor expressed in mouse LMtk cells
# Format: cell-based
Measurement type: IC50 (nM)

- Cc1nnc(-c2ccc3[nH]c([C@H]4CC[C@@]5(CC4)OC(=O)c4ccccc45)nc3c2)o1: 3.3
- Cc1nc(-c2ccc3[nH]c([C@H]4CC[C@@]5(CC4)OC(=O)c4ccccc45)nc3c2)no1: 5.1
- O=C(c1ccccc1)c1ccc2[nH]c([C@H]3CC[C@@]4(CC3)OC(=O)c3ccccc34)nc2c1: 2.4
- COC(=O)c1cc2[nH]c([C@H]3CC[C@@]4(CC3)OC(=O)c3ccccc34)nc2cc1Cl: 2.2
